target: SARS-CoV-2 Main Protease (SARS-CoV-2); settings: 50.0 µM
observable: inhibition (%)

> print(dat)
                                   compound  observable  reported.result
1  CCC(=O)O[C@@H](OP(=O)(CCCCc1ccccc1)CC(=O)N1C[C@H](C2CCCCC2)C[C@H]1C(=O)O)C(C)C (stereo in doubt)  inhibition           -0.253
2  O=C(NC(Cc1ccccc1)C(=O)NCc1ccno1)OCc1ccccc1 (stereo not given)  inhibition             50.6
3        O=C1C(=O)N(Cc2ccc(Br)cc2)c2ccccc21  inhibition            0.439
4  CN(C(=O)C1CCOc2ccc(Cl)cc21)c1ccc(Cl)cn1 (stereo not given)  inhibition             9.88
5                  Cc1ccncc1NC(=O)CN1CCOCC1  inhibition            -7.76

###

biological target: SARS-CoV-2 Main Protease (SARS-CoV-2) (UniProt P0DTD1); settings: 50.0 µM
If the reported inhibition equals or exceeds 9%, assign condition met. If not, assign condition not met.

> print(dat)
                                   compound                       experimental.system              group
1  COC(=O)c1sc(NS(=O)(=O)c2ccc(CF)cc2)nc1C(C)(C)C  SARS-CoV-2 Main Protease (SARS-CoV-2) (UniProt P0DTD1)  condition not met
2  O=C(c1cc(=O)[nH]c2ccc(F)cc12)N1CCN(S(=O)(=O)c2ccc(Cl)cc2)CC1  SARS-CoV-2 Main Protease (SARS-CoV-2) (UniProt P0DTD1)      condition met
3   O=c1cc(-c2ccc(OCc3ccccc3)cc2)oc2ccccc12  SARS-CoV-2 Main Protease (SARS-CoV-2) (UniProt P0DTD1)      condition met
4  COc1ccc2c(c1)C(C(=O)Nc1cncnc1C)CCC2 (stereo not given)  SARS-CoV-2 Main Protease (SARS-CoV-2) (UniProt P0DTD1)  condition not met
5  C/C=C1\C(C2(C)CCCC(C)(C)C2)=CCC2C1[C@@H](OC(C)=O)O[C@H]2OC(C)=O (stereo in doubt)  SARS-CoV-2 Main Protease (SARS-CoV-2) (UniProt P0DTD1)  condition not met
6  O=C(NCc1cccc(C(=O)N2CCOCC2)c1)c1cnc2c(c1)c(=O)[nH]c(=O)n2Cc1ccccc1  SARS-CoV-2 Main Protease (SARS-CoV-2) (UniProt P0DTD1)  condition not met
7  O=C1OC(c2cccs2)=N/C1=C\c1ccc(N2CCOCC2)s1  SARS-CoV-2 Main Protease (SARS-CoV-2) (UniProt P0DTD1)      condition met
8       C=CC(=O)N1CCN(C(=O)c2cccc(Cl)c2)CC1  SARS-CoV-2 Main Protease (SARS-CoV-2) (UniProt P0DTD1)  condition not met
9  C=CC(=O)N(c1ccc(C(C)(C)C)cc1)C(C(=O)Nc1ccc(F)cc1C)c1cccnc1 (stereo not given)  SARS-CoV-2 Main Protease (SARS-CoV-2) (UniProt P0DTD1)  condition not met

###

target: SARS-CoV-2 Main Protease (SARS-CoV-2)
pIC50: −log10 of the molar value.
observable: pIC50

> print(dat)
                                    compound                    experimental.system  reported.result
 1   Cc1ccc(OCCN2C(=O)C(=O)c3cccc(Cl)c32)cc1  SARS-CoV-2 Main Protease (SARS-CoV-2)             5.67
 2      COCc1cc(Cl)cc(CN2CCN(C(=O)CCl)CC2)c1  SARS-CoV-2 Main Protease (SARS-CoV-2)             5.88
 3  O=S(=O)(Nc1ccccc1SCc1cccc(Cl)c1F)c1cc(Cl)sc1Cl  SARS-CoV-2 Main Protease (SARS-CoV-2)             5.72
 4  O=C(c1cc(=O)[nH]c2ccccc12)N1CCN(c2cccc(C(F)(F)F)c2)CC1  SARS-CoV-2 Main Protease (SARS-CoV-2)             5.25
 5             Cc1ccncc1NC(=O)Nc1cccc(C#N)c1  SARS-CoV-2 Main Protease (SARS-CoV-2)             4.31
 6  CS(=O)(=O)c1ncc(Cl)c(C(=O)Nc2ccccc2Cc2ccccc2)n1  SARS-CoV-2 Main Protease (SARS-CoV-2)             6.08
 7       O=C(Cc1cccc(Cl)c1)Nc1cccc2[nH]ncc12  SARS-CoV-2 Main Protease (SARS-CoV-2)             4.63
 8    Cc1ccncc1NC(=O)CN1C(=O)COc2ccc(Cl)cc21  SARS-CoV-2 Main Protease (SARS-CoV-2)             4.41
 9  O=C(NCc1ccc2c(c1)OCO2)c1nc(S(=O)(=O)Cc2ccccc2)ncc1Cl  SARS-CoV-2 Main Protease (SARS-CoV-2)             6.29
10  COc1ccccc1OCCNC(=O)c1cc(=O)[nH]c2cccc(F)c12  SARS-CoV-2 Main Protease (SARS-CoV-2)             5.74
11    O=C(Cc1cc(Cl)cc2c1OCC2)Nc1cncc2ccccc12  SARS-CoV-2 Main Protease (SARS-CoV-2)             6.31
12  C=CC(=O)N(c1ccc(C(F)(F)F)cc1)C(C(=O)NCCc1cccc(F)c1)c1cncc(C)c1 (centres undefined)  SARS-CoV-2 Main Protease (SARS-CoV-2)             5.11
13  CCOC(=O)c1ccc(NC(=O)CC2SC(=O)N(c3ccccc3)C2=O)cc1 (centres undefined)  SARS-CoV-2 Main Protease (SARS-CoV-2)             6.20
14  C=CC(=O)N(c1ccc(C(C)(C)C)cc1)C(C(=O)NCCc1cccc(F)c1)c1cccnc1 (centres undefined)  SARS-CoV-2 Main Protease (SARS-CoV-2)             5.47
15  C=CC(=O)N(c1ccc(C(F)(F)F)cc1)C(C(=O)NCCc1cccc(F)c1)c1cccnc1 (centres undefined)  SARS-CoV-2 Main Protease (SARS-CoV-2)             5.21
16  Cc1ccncc1NC(=O)Cc1cc(Cl)cc(-c2cnn(C)c2C(F)F)c1  SARS-CoV-2 Main Protease (SARS-CoV-2)             4.80
17  O=C(Nc1cncc2ccccc12)C1CCCc2ccc(Cl)cc21 (centres undefined)  SARS-CoV-2 Main Protease (SARS-CoV-2)             6.54
18  O=C(Cc1cncc2ccccc12)Nc1cc(Cl)cc(OC2CCC(=O)N2)c1 (centres undefined)  SARS-CoV-2 Main Protease (SARS-CoV-2)             4.71
19  Nc1nn(C(=O)C2CCOc3ccc(Cl)cc32)c2cc(F)ccc12 (centres undefined)  SARS-CoV-2 Main Protease (SARS-CoV-2)             4.27
20  Cc1cc(C)c(C#N)c(Sc2ncnc3c2nnn3Cc2ccccc2)n1  SARS-CoV-2 Main Protease (SARS-CoV-2)             6.59
21         O=C(Cc1cncc2ccccc12)Nc1cccc(Cl)c1  SARS-CoV-2 Main Protease (SARS-CoV-2)             5.14
22  Cc1ccncc1NC(=O)Cc1cc(Cl)cc(OCc2cc(-c3ccc(Cl)cc3)no2)c1  SARS-CoV-2 Main Protease (SARS-CoV-2)             4.31
23            Cc1cc(Br)cc2c1N(CCBr)C(=O)C2=O  SARS-CoV-2 Main Protease (SARS-CoV-2)             4.78
24  C[C@@H]1C[C@H](C(=O)Nc2cncc3ccccc23)c2cc(Cl)ccc2O1 (stereo in doubt)  SARS-CoV-2 Main Protease (SARS-CoV-2)             5.58

###

molecular target: UniProtKB P0DTD1; details: 20.0 µM
observable: inhibition

> print(dat)
                                    compound  observable  reported.result
 1    O=C(CCl)N1CCN(Cc2cnc(-c3ccccc3)nc2)CC1  inhibition            6.18%
 2  COc1ccc(-n2cc(CN3CCN(C(=O)CCl)CC3)nn2)cc1  inhibition            10.9%
 3  Cc1ccccc1NC1CCN(c2ccc(S(N)(=O)=O)cc2)CC1  inhibition            4.98%
 4  C=CC(=O)N(c1ccc(C(F)(F)F)cc1)C(C(=O)Nc1ccccc1Br)c1cccnc1 (stereo not given)  inhibition            15.6%
 5  C#CCOc1ccc(N(C(=O)C=C)C(C(=O)NC(C)(C)C)c2cccnc2)cc1 (stereo not given)  inhibition           -13.4%
 6  C=CC(=O)N(c1ccc(N(C)C)c(C)c1)C(C(=O)Nc1cccc(CC)c1)c1cccnc1 (stereo not given)  inhibition            7.05%
 7  O=S1(=O)CCC(N2CCN(c3nc(-c4cccnc4)nc4ccccc34)CC2)C1 (stereo not given)  inhibition              13%
 8  COc1ccc2c(c1)C(C(=O)Nc1cnccc1-n1cccn1)CCC2 (stereo not given)  inhibition           -15.2%
 9  C=CC(=O)N(c1cc(C(C)(C)C)on1)C(C(=O)NCCc1cccc(F)c1)c1cncc(Cl)c1 (stereo not given)  inhibition            15.8%
10               O=C(Nc1cccnc1)Nc1cccc(Cl)c1  inhibition            12.9%
